target: 5-Lipoxygenase from RBL-1 20,000 × g Supernatant (Rattus norvegicus); construct: 20,000 xg supernatant from 1.5 million homogenized RBL-1 cells; endogenous in cells; host or cells: RBL-1 cells, 20,000 xg supernatant of homogenate; experiment: 5-lipoxygenase inhibition in 20,000 xg supernatant of homogenized RBL-1 cells (radiolabeled arachidonic acid); format: biochemical; conditions: in vitro, incubations in triplicate, read-out: IC50 × 10^6 Molar
Sequence (P12527 whole entry): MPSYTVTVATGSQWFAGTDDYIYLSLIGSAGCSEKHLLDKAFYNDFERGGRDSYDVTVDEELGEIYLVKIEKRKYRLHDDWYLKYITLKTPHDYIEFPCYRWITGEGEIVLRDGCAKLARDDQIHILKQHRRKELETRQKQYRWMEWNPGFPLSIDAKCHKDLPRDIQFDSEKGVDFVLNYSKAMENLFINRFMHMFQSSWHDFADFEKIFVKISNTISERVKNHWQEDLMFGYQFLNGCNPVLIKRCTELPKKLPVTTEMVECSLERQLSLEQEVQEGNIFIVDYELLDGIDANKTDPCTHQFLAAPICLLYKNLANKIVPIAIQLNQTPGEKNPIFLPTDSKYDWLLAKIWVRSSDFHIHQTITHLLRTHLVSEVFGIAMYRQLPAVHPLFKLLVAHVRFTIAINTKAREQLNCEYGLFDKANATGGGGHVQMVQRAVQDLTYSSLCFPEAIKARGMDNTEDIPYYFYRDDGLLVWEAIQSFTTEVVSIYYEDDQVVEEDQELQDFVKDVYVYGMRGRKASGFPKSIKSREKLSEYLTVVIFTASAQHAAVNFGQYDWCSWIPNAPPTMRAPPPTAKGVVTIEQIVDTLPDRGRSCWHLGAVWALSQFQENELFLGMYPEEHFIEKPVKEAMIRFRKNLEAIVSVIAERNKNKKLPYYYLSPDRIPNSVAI
Listed compounds paired with reported IC50
READOUT KIND: IC50

1. Cc1ccc(C(C)OCCN(O)C(N)=O)o1 (stereo not drawn); 6.3 µM
2. NC(=O)N(O)CCOCc1cccs1; 4.1 µM
3. CC(COCc1cccs1)N(O)C(N)=O (stereo not drawn); 4.5 µM
4. CC(CSc1ccccn1)N(O)C(N)=O (stereo not drawn); 9.7 µM
5. Cc1ccc(COCC(C)N(O)C(N)=O)o1 (stereo not drawn); 4.6 µM
6. CC(OCC(C)N(O)C(N)=O)c1ccco1 (stereo not drawn); 7.3 µM
7. CC(COCc1ccsc1)N(O)C(N)=O (stereo not drawn); 8.4 µM
8. Cc1ccc(COCCN(O)C(N)=O)o1; 7.3 µM
9. NC(=O)N(O)CCOCc1cc2ccccc2s1; 0.67 µM
10. CNC(=O)N(O)C(C)CSCc1ccc(CN(C)C)o1 (stereo not drawn); 27.6 µM
11. Cc1ccc(COCCN(O)C(N)=O)s1; 3 µM
12. CC(COCc1ccco1)N(O)C(N)=O (stereo not drawn); 12 µM
13. Cc1occc1COCC(C)N(O)C(N)=O (stereo not drawn); 6 µM
14. Cc1ccc(C(C)OCC(C)N(O)C(N)=O)o1 (stereo not drawn); 6.6 µM
15. CC(COCc1ccoc1)N(O)C(N)=O (stereo not drawn); 9.3 µM
16. CC(OCCN(O)C(N)=O)c1cc2ccccc2s1 (stereo not drawn); 0.2 µM
17. Cc1cc(COCCN(O)C(N)=O)c(C)o1; 6.9 µM
18. CC(COCc1cc2ccccc2s1)N(O)C(N)=O (stereo not drawn); 0.46 µM
19. Cc1cc(COCC(C)N(O)C(N)=O)c(C)o1 (stereo not drawn); 5.7 µM
20. CC(CSCc1ccco1)N(O)C(N)=O (stereo not drawn); 5.5 µM
21. Cc1ccc(COCC(C)N(O)C(N)=O)s1 (stereo not drawn); 1.9 µM

Origin of measurements: patent US5183818A
